Target: Cytochrome P450 2C19 (Homo sapiens)
Assay: Cytochrome panel assay with activity outcomes; further: on the % scale 0 is the no-effect control and ±100 the full control effect
Conditions: recombinant CYP, pro-luciferin dealkylation, luminescence, p450-cyp2c19; series mostly up to 57.1 µM
Procedure: The P450 gene superfamily is involved in the metabolism and clearance of xenobiotics. This assay used various human CYP P450 isozymes to measure the dealkylation of various pro-luciferin substrates to luciferin. The luciferin is then measured by luminescence after the addition of a luciferase detection reagent. […] Inhibitors and some substrates limit the production of luciferin, and decrease measured luminescence. […] 8, Detection, 1 sec, ViewLux luminescent read […]
About 5,800 (36%) of roughly 16,000 compounds were called active. Not shown: some 23% with an inconclusive outcome. Some of the results follow.
Measured parameter: activity, negative = inhibition

# activity, negative = inhibition measured on Cytochrome P450 2C19 (Homo sapiens) for item `CN(C)CCCn1cnc2cc(Cl)c(Cl)cc21` = 51.6% [at 11.4 µM] (inactive)

Kindly note: Cytochrome P450 2C19 (Homo sapiens), `COc1ccc(/C=N\NC(=O)O)cc1` , activity, negative = inhibition value reported: 11% [at 11.4 µM] (inactive)

The compound `CC(CO)(CO)N=Cc1cc(I)cc(I)c1O` , when measured on Cytochrome P450 2C19 (Homo sapiens), yielded activity, negative = inhibition of -13.1% [at 11.4 µM] (inactive)

For `C(=Nc1cnc2ccccc2c1)c1ccc2ccccc2n1` on Cytochrome P450 2C19 (Homo sapiens), measured activity, negative = inhibition was 34% [at 11.4 µM] (inactive)

With Cytochrome P450 2C19 (Homo sapiens) as the test system, `Cc1cc(C2(c3cc(C)c(O)c(C(=O)O)c3)OS(=O)(=O)c3ccccc32)cc(C(=O)O)c1O` showed activity, negative = inhibition of 12.7% [at 11.4 µM] (inactive)

Response field activity, negative = inhibition (Cytochrome P450 2C19 (Homo sapiens)) for item `CC1(C)O[C@@H]2O[C@H]([C@H](O)CO/N=C3/[C@H]4O[C@@H]4[C@@H](O)[C@H]4[C@H]3CCn3c(=O)n(-c5ccccc5)c(=O)n34)[C@@H](O)[C@@H]2O1` : -36.7% [at 11.4 µM] (inactive)

Item: `COc1ccc(COC(=O)N/N=C2/C[C@@H](O)[C@@H](O)[C@@H]3[C@@H]4C(=O)N([C@@H](C)c5ccccc5)C(=O)[C@H]4CC[C@@H]23)cc1` | System: Cytochrome P450 2C19 (Homo sapiens) | activity, negative = inhibition: -25.8% [at 11.4 µM] (inactive)

Item `COc1ccc(C[N+](C)(C)N)cc1OC` ; assay system Cytochrome P450 2C19 (Homo sapiens); activity, negative = inhibition reported as 22.8% [at 11.4 µM] (inactive)

Short answer on Cytochrome P450 2C19 (Homo sapiens) for `CN(C)CCCc1c2ccccc2nc2ccc(Cl)cc12` , activity, negative = inhibition: 7.79% [at 11.4 µM] (inactive)

Log: Cytochrome P450 2C19 (Homo sapiens), compound `NCC(=O)Nc1ccc(Cl)cc1C(=O)c1ccc[nH]1` , activity, negative = inhibition = -10.9% [at 11.4 µM] (inactive)

`CC(C)/C(=N/[N+](C)(C)C)c1ccccc1` on Cytochrome P450 2C19 (Homo sapiens) gives activity, negative = inhibition = 18.6% [at 11.4 µM] (inactive)

Hey, Cytochrome P450 2C19 (Homo sapiens) data for `O=C1[C@H]2[C@H]3[C@H](O)[C@H](O)C/C(=N/OC[C@@H](O)COCc4ccco4)[C@H]3CC[C@@H]2C(=O)N1C[C@@H]1CCCO1` : activity, negative = inhibition came out at -12.6% [at 11.4 µM] (inactive)

Here `C[C@H](CN(C)C)C(=O)c1ccccc1C(=O)O` was tested on Cytochrome P450 2C19 (Homo sapiens), and its activity, negative = inhibition came to 12.3% [at 11.4 µM] (inactive)

The value of activity, negative = inhibition recorded for `O=c1oc2cc(N=Cc3ccc4c(c3)OCO4)ccc2c2ccccc12` when tested on Cytochrome P450 2C19 (Homo sapiens) reads -3.38% [at 11.4 µM] (inactive)

With Cytochrome P450 2C19 (Homo sapiens) as the test system, `c1ccc([P+](CC[P+](c2ccccc2)(c2ccccc2)c2ccccc2)(c2ccccc2)c2ccccc2)cc1` showed activity, negative = inhibition of -40.8% [at 11.4 µM] (inactive)

activity, negative = inhibition for Cytochrome P450 2C19 (Homo sapiens) with input `C[C@@H]1NCC[C@H](CC(=O)O)[C@H]1CC(=O)O` equals 4.52% [at 11.4 µM] (inactive)

Reported activity, negative = inhibition (Cytochrome P450 2C19 (Homo sapiens)) for entry `CCOC(=O)N/N=C1/C[C@@H](O)[C@@H](O)[C@@H]2[C@@H]3C(=O)N(CC)C(=O)[C@H]3CC[C@@H]12` is 25.5% [at 11.4 µM] (inactive)

Sample `NCCSC[C@H](N)C(=O)O` , system: Cytochrome P450 2C19 (Homo sapiens). Its activity, negative = inhibition is -6.06% [at 11.4 µM] (inactive)

Log: Cytochrome P450 2C19 (Homo sapiens), compound `CC[C@H](CN(C)C)C(=O)c1ccco1` , activity, negative = inhibition = 8.39% [at 11.4 µM] (inactive)

Measured activity, negative = inhibition (Cytochrome P450 2C19 (Homo sapiens)), entry `Cc1ccc(N=Nc2c(O)ccc3cc(S(=O)(=O)O)ccc23)cc1` : 6.68% [at 11.4 µM] (inactive)

Recorded activity, negative = inhibition for `CC(C)(SCc1ccccc1)[C@H](N)C(=O)O` on Cytochrome P450 2C19 (Homo sapiens) was 1.45% [at 11.4 µM] (inactive)

Reported activity, negative = inhibition (Cytochrome P450 2C19 (Homo sapiens)) for entry `Cc1cc(=Nc2ccc3c(c2)c(N)cc(C)[n+]3C)nc(N)n1C` is 35.5% [at 11.4 µM] (inactive)

// assay Cytochrome P450 2C19 (Homo sapiens), entry `CN[C@@H]1NC(=O)c2ccccc2N1Cc1ccc(F)cc1` , activity, negative = inhibition value = -2.68% [at 11.4 µM] (inactive)

Recorded activity, negative = inhibition for `CC(C)[C@](N)(C(=O)O)c1ccccc1` on Cytochrome P450 2C19 (Homo sapiens) was 11.6% [at 11.4 µM] (inactive)

Measured on Cytochrome P450 2C19 (Homo sapiens), `CN1CCN(Cc2nc3cccc4c3c([n+]2[O-])-c2ccccc2-4)CC1` has a documented activity, negative = inhibition of -13.4% [at 11.4 µM] (inactive)

Sample `CO[C@@H]1COC(=O)[C@H]2CCCN2C(=O)[C@@H](C)COC(=O)C/C=C\[C@H]1C` , system: Cytochrome P450 2C19 (Homo sapiens). Its activity, negative = inhibition is 91.7% [at 11.4 µM] (inactive)

The reported activity, negative = inhibition value, Cytochrome P450 2C19 (Homo sapiens), for `CO[C@H]1COC(=O)[C@H](C)COC(=O)[C@@H](Cc2ccccc2)NC(=O)C/C=C\[C@H]1C` reads -17.9% [at 11.4 µM] (inactive)

Form field, activity, negative = inhibition with Cytochrome P450 2C19 (Homo sapiens), item `CC[C@H]1CC[C@H]2[C@@H]3CC=C4C[C@H](OC(C)=O)[C@@H](N)C[C@@]4(C)[C@H]3CC[C@@]12C` : 22.6% [at 11.4 µM] (inactive)

Form field, activity, negative = inhibition with Cytochrome P450 2C19 (Homo sapiens), item `CCc1cc2c(nc1CC)CCN(CC/C(C)=N/OCC[C@@H]1C=C[C@H](OC(C)=O)[C@H](COC(C)=O)O1)C2` : 7.29% [at 11.4 µM] (inactive)

Reading of activity, negative = inhibition for `Cc1ccc(S(=O)(=O)N[C@H]2COC(=O)[C@H](C)COC(=O)[C@H](C)NC(=O)C/C=C\[C@H]2C)cc1` with Cytochrome P450 2C19 (Homo sapiens): 16.6% [at 11.4 µM] (inactive)

Form field, activity, negative = inhibition with Cytochrome P450 2C19 (Homo sapiens), item `[N-]=[N+]=NC[C@@H]1O[C@@H](n2cnc3c(N)ncnc32)[C@@H]2O[C@@H]21` : 18.5% [at 11.4 µM] (inactive)

Summary line: `CC(C)(C)CC(C)(C)c1cc(O)c(O)c(CN2CCCCC2)c1` , Cytochrome P450 2C19 (Homo sapiens), reported activity, negative = inhibition = -5.03% [at 11.4 µM] (inactive)

Record `CC(C)(C)CNCCO` has Cytochrome P450 2C19 (Homo sapiens) activity, negative = inhibition equal to 7.05% [at 11.4 µM] (inactive)

Test item `C#CCCCO/N=C1/C[C@@H](O)[C@@H](O)[C@@H]2[C@@H]3C(=O)N([C@@H](C)c4ccccc4)C(=O)[C@H]3CC[C@@H]12` ; Cytochrome P450 2C19 (Homo sapiens); reported activity, negative = inhibition was -27.9% [at 11.4 µM] (inactive)

Entry `O=C(O)c1ccc(C(=O)O)c(C(=O)O)c1.[NH-][C@@H]1CCCC[C@@H]1[NH-].[Pt]` ; assay system Cytochrome P450 2C19 (Homo sapiens); activity, negative = inhibition recorded at -17.9% [at 11.4 µM] (inactive)

GET /values?item= `Cc1c(S(=O)(=O)O)ccc(N=Nc2c(O)c(C(=O)O)cc3ccccc23)c1Cl` &system= Cytochrome P450 2C19 (Homo sapiens) returns activity, negative = inhibition: 14.5% [at 11.4 µM] (inactive)

Item `CC(C)c1ccc(/C=C2\C=C(c3ccc4ccccc4c3)OC2=O)cc1` ; assay system Cytochrome P450 2C19 (Homo sapiens); activity, negative = inhibition reported as -31.6% [at 11.4 µM] (inactive)

With Cytochrome P450 2C19 (Homo sapiens) as the test system, `C#CCCCO/N=C1/C[C@@H](O)[C@@H](O)[C@@H]2[C@@H]3C(=O)N(C4CCCCC4)C(=O)[C@H]3CC[C@H]12` showed activity, negative = inhibition of 4.77% [at 11.4 µM] (inactive)

Result for `N=c1nc(N)nc(N)n1-c1ccc(S(N)(=O)=O)cc1` , tested on Cytochrome P450 2C19 (Homo sapiens), activity, negative = inhibition: 36.5% [at 11.4 µM] (inactive)

Item: `CCOc1ccccc1/C=C(\C#N)C(N)=O` | System: Cytochrome P450 2C19 (Homo sapiens) | activity, negative = inhibition: -18.7% [at 11.4 µM] (inactive)
